B1: Pistol ribozyme (parent)
chain: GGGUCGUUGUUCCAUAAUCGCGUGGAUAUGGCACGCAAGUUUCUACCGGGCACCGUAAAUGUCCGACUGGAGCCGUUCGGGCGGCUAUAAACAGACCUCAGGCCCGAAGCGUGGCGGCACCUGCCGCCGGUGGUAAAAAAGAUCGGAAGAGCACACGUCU

- Variants of: B1
- EXPERIMENT: aptazyme ON/OFF ratio, guanine; higher = stronger switching; co-transcriptional cleavage with and without guanine
Task for the reader: assign each of the following variants its reported aptazyme ON/OFF ratio.
Answers are plain numbers.

Below, 6 variants whose answers are already recorded.
VARIANT CODE	MEASURED ENDPOINT	ASSAY RESULT
U8G U10C C13G	aptazyme ON/OFF ratio	1.04
U7C U8A G9A U10A U11C C12G C13U	aptazyme ON/OFF ratio	1.18
U7C U8A G9U U10A C12A C13G	aptazyme ON/OFF ratio	1.16
U7C U8G G9U U10G U11G C13A	aptazyme ON/OFF ratio	1.23
U7A U8C G9U U10C U11C C13U	aptazyme ON/OFF ratio	1.03
U7G U8G G9C U10C C13U	aptazyme ON/OFF ratio	1.59

Look up aptazyme ON/OFF ratio for the entries below, preserving their order.
1. U7G G9U U10A U11G C13G
2. G9C U10G C12A
3. G9A U11A C13A
4. U7A U8G U10A U11A C12U

Ans.
1.15
1.3
1.23
1.38

Look up aptazyme ON/OFF ratio for the entries below, preserving their order.
1. U7C U8G G9A U10G U11G C12G C13U
2. U8C G9U U10G U11A C13U
3. U7G U8G G9A U10A U11A C13G

Ans.
1. 1.24
2. 1.14
3. 1.14
